molecular target: VEGFR2 (KDR) extracellular domain/Fc (Homo sapiens) (UniProt P35968); test: filter; conditions: 2'-F pyrimidines; circularly permuted family member
Sequence (P35968 20-764): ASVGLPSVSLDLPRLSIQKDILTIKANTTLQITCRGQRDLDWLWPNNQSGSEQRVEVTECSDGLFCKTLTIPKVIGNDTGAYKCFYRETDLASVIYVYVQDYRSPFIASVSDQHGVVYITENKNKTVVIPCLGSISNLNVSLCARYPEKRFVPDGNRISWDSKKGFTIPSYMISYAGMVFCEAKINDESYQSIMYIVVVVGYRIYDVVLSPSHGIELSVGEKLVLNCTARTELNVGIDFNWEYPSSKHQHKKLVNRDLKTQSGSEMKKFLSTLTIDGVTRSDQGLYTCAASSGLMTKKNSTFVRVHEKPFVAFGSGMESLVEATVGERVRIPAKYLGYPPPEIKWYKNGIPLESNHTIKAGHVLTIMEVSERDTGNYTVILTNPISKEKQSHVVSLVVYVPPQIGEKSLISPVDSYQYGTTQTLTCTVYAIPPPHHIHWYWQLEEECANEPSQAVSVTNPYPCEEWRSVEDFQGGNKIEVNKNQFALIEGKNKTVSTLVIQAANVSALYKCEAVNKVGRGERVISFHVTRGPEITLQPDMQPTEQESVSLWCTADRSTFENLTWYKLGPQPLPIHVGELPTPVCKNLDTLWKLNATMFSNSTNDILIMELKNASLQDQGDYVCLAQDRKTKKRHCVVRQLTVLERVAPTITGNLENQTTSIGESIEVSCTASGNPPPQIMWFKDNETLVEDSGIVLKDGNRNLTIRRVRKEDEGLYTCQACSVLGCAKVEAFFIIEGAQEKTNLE
EXPERIMENTAL_READOUT: Kd (nM)
Return type: number; implicit unit nM.

Per the records, this sequence ( GGGAGGACGAUGCGGAUCAUACCGGGUCAUAACACCGNUCACGGGGCCUUNUCGUCAGACGACUCGCCCGA [K24] ) has Kd equal to 0.97

====

target: VEGFR2 (KDR) extracellular domain/Fc (Homo sapiens) (UniProt P35968); test: filter; conditions: 2'-F pyrimidines; comparison with cMet/Fc
EXPERIMENTAL_READOUT: pKd
# reply with the number alone; pKd is -log10 of concentration in mol/L

Per the records, this sequence ( GGGAGGACGAUGCGGNNNNNNNNNNNNNNNNNNNNNNNNNNNNNNNNNNNNNNNNCAGACGACUCGCCCGA [KDR SELEX round 5 pool] ) has pKd equal to 9.12
